Data credit: ChEMBL document CHEMBL4627281

target: Mast/stem cell growth factor receptor Kit (Homo sapiens, UniProt P10721); assay: Inhibition of recombinant human N-terminal GST-tagged c-Kit (544 to end residues) expressed in baculovirus infected Sf21 insect cells using FAM-labelled P22 peptide as substrate preincubated for 10 mins followed by substrate addition and measured after 1 hr in presence of ATP by fluorescence assay
Sequence (P10721 whole entry): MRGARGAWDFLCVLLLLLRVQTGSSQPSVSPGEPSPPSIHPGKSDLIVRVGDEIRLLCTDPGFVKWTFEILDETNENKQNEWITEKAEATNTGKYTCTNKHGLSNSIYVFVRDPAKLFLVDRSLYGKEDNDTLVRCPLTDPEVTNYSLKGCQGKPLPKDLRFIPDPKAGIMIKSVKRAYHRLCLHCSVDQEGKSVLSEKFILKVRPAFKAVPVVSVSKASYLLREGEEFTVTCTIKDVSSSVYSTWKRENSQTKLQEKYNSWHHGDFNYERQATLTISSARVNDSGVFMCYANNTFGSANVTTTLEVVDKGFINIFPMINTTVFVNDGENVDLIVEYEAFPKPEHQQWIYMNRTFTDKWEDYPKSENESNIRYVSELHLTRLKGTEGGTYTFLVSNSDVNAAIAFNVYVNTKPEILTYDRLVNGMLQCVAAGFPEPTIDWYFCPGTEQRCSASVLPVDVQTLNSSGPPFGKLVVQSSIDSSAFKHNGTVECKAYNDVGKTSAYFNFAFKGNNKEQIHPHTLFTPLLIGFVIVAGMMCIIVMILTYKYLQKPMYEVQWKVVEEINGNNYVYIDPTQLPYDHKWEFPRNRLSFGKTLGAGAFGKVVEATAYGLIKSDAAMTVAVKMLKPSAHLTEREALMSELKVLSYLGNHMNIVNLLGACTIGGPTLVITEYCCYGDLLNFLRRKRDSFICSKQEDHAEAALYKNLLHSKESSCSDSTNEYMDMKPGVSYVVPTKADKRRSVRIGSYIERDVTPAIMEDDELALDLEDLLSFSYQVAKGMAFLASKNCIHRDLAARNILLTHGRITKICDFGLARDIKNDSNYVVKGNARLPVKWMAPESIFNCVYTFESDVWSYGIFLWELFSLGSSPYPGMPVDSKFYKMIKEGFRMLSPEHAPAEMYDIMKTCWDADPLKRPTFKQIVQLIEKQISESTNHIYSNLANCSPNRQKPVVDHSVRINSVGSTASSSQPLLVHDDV
endpoint_name: IC50 (µM)

Example molecules with recorded IC50:
mol=Cc1cn(-c2cc(CN3CCC[C@H](N)C3)cc(NC(=O)c3ccc(C)c(Nc4nccc(-c5ccc(F)cc5)n4)c3)c2)cn1 unit_descriptor=µM numeric_result=1.96
mol=Cc1cn(-c2cc(NC(=O)c3ccc(C)c(Nc4nccc(-c5ccccc5)n4)c3)cc(C(F)(F)F)c2)cn1 unit_descriptor=µM numeric_result=0.592
mol=Cc1cn(-c2cc(CN3CCN(C)CC3)cc(NC(=O)c3ccc(C)c(Nc4nccc(-c5ccccc5)n4)c3)c2)cn1 unit_descriptor=µM numeric_result=2.57
mol=Cc1cc(-c2cc(NC(=O)c3ccc(C)c(Nc4nccc(-c5ccc(F)cc5)n4)c3)cc(N3CCN(C)CC3)c2)on1 unit_descriptor=µM numeric_result=3.1
mol=CCCCc1cc(NC(=O)c2ccc(C)c(Nc3nccc(-c4ccccc4)n3)c2)cc(-n2cnc(C)c2)c1 unit_descriptor=µM numeric_result=0.302

P. Cc1cn(-c2cc(NC(=O)c3ccc(C)c(Nc4nccc(-c5ccccc5)n4)c3)cc(N3CCN(C)CC3)c2)cn1
Q. Cc1cn(-c2cc(NC(=O)c3ccc(C)c(Oc4ccccc4)c3)cc(C(F)(F)F)c2)cn1
R. Cc1cn(-c2cc(NC(=O)c3ccc(C)c(Oc4cccc5ccncc45)c3)cc(N3CCN(C)CC3)c2)cn1
S. Cc1cn(-c2cc(NC(=O)c3ccc(C)c(Nc4nccc(-c5ccccc5)n4)c3)cc(N3CCNCC3)c2)cn1
T. Cc1cn(-c2cc(CN3CCCC[C@H]3C(N)=O)cc(NC(=O)c3ccc(C)c(Nc4nccc(-c5ccc(F)cc5)n4)c3)c2)cn1
Inquiry: // ranking: key=IC50, reverse=True Please reply with the labels ordered as requested. Many thanks.
Reply text: T, P, S, Q, R
(T: 9.87 µM, P: 2.88 µM, S: 1.49 µM, Q: 0.618 µM, R: 0.227 µM)
